# credit: patent US20210277110A1

TARGET_OR_TEST_SYSTEM: T1, Extracellular domain of cyno PD1 (cPD1-ECD) (Macaca fascicularis (cynomolgus))
T1 construct: Expressed with a hexahistidine tag or as Fc fusion; also called cynoPD1-ECD; cynoPD-1-ECD
T1 chain: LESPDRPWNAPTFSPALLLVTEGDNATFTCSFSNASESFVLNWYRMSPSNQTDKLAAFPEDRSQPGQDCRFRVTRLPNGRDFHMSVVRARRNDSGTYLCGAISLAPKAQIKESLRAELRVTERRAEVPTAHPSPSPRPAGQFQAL
TEST: SPR ProteOn, cynoPD1-ECD; RANGE high replicate
OBSERVATION_TYPE: Kd (nM)
Form entry: value (nM) — number only.

Lab note: measured Kd of PD1B11 (antibody, V domains shown, Tested as IgG2sigma/kappa; also called PD1H3/PH9L3) VH: QVQLVQSGAEVKKPGSSVKVSCKASGGTFSSYAISWVRQAPGQGLEWMGGIIPIFGTANYAQKFQGRVTITADESTSTAYMELSSLRSEDTAVYYCARPGLAAAYDTGSLDYWGQGTLVTVSS VL: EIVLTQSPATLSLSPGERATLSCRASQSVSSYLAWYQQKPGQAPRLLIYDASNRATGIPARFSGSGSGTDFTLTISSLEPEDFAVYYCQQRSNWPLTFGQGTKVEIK was 27.1
